Data origin: ChEMBL document CHEMBL1201862

System: UO-31
Method notes: NCI tumour cell line growth inhibition, 48 h
The source made the active and inactive calls. Rule as the data show it: active = GI50 up to about 1.1 µM and inactive = higher.
Field: GI50. Provide a value for each of the compounds that follow.

COC(=O)C(C)(C)[C@@H]1OC(=O)N(S(=O)(=O)c2c(C)cc(C)cc2C)[C@H]1C(C)C tested on UO-31 gave GI50: > 100 µM (inactive)

Cc1ccc2ccc(=O)oc2c1 tested on UO-31 gave GI50: > 100 µM (inactive)

O=C(NCCCNCCCCNCCCNC(=O)C(F)(F)F)C(F)(F)F tested on UO-31 gave GI50: > 100 µM (inactive)

C=CC1(c2ccc3ccccc3c2)OCC(CC)(CC)CO1 tested on UO-31 gave GI50: 32.7 µM (inactive)

COc1ccc(C2CC(c3c(O)ccc4ccccc34)=NN2c2ccc([N+](=O)[O-])cc2[N+](=O)[O-])cc1OC (centres undefined) tested on UO-31 gave GI50: 9.25 µM (inactive)

CCO[C@]12C[C@H](OC)[C@@]3(O)CC(C1[C@H]3OCc1ccccc1)C13C4C2[C@H](OC)C1[C@](COC)(CN4CC)[C@H](O)C[C@@H]3OC (some centres undefined) tested on UO-31 gave GI50: > 100 µM (inactive)

COc1ccc(P2(=S)OC(C)(C)C(C)(C)O2)cc1 tested on UO-31 gave GI50: 17.5 µM (inactive)

COc1ccc2c(Cc3c4ccccc4cc4ccccc34)cncc2c1O tested on UO-31 gave GI50: 4.4 µM (inactive)

COC(=O)C1=C(C(=O)OC)SC(=C2S[C@@H]3[C@@H]4C[C@H]([C@@H]3S2)[C@H]2C(=O)OC(=O)[C@@H]42)S1 tested on UO-31 gave GI50: > 100 µM (inactive)
